Test: Quantitative High-Throughput drug screen in 47 multiple myeloma cell lines against the NCATS MIPE library collection: JJN3_DSMZ cell viability assay (AID 1918966; note: nearly all actives have a fitted effect of over 50% in size)
Conditions: JJN3 myeloma cells viability, CellTiter-Glo ATP, 48 h; series mostly up to 45.8 µM
Description: PI: Beverly A. Mock Ph.D. Laboratory of Cancer Biology and Genetics, Center for Cancer Research, National Cancer Institute, National Institute of Health, Bethesda, Maryland […] 5; Detector; 425V; Luminescence; Viewlux PerkinElmer. […] 1. […] Briefly, the corresponding myeloma cell lines were screened in 1,536-well plates with 500 cells, 5-uL per well for inhibition of cell viability (assessed by measuring ATP levels with CellTiterGlo). […]
Records with an inconclusive call do not appear. Active and inactive are the calls of the source. Calls come from the whole dose curve; as a rule, active = well fitted cell-killing curve with a large enough effect; inconclusive = small, poorly fitted or top-dose-only effect, or effect the other way; inactive = no such curve, though single readings can be large or run the other way.
Outcome codes: Y for active, N for inactive

| Entry Smiles | Label Class |
| --- | --- |
| CC(=O)Nc1nc(C)c(-c2ccc(Cl)c(S(=O)(=O)NCCO)c2)s1 | Y |
| C[C@H]1C[C@@H]2[C@@H]([C@@H](O)C[C@@]3(C)[C@H]2CC[C@]3(O)C(=O)CO)[C@@]2(C)C=CC(=O)C=C12 | N |
| CNC(=O)c1cc(Oc2ccc(NC(=O)Nc3cc(C(C)(C)C)nn3-c3ccc4ncccc4c3)c(F)c2)ccn1 | Y |
| NCC(=O)Nc1ccc(-n2nc(C(F)(F)F)cc2-c2ccc3c(ccc4ccccc43)c2)cc1 | Y |

The reported measurements were obtained from PubChem BioAssay (NCATS).
